EXPERIMENTAL_PROTOCOL: Active ingredient assay and recovery on storage (Table 2)
Format: physicochemical
CONDITION_SET: 3 month storage, −10° C.
MEASURED_QUANTITY: Assay (% w/w)
Give just the numeric value; % w/w need not be written.

1) CCCCCCCC(=O)Oc1c(Br)cc(C#N)cc1Br [Bromoxynil, Bromoxynil Octanoate]: 33.06

Requested read-out: Assay (% w/w). Entry: CCCCC(CC)COC(=O)COc1ccc(Cl)cc1C (centres unmarked) [MCPA] 35.36

Consider the molecule shown here: CCCCCCC(C)OC(=O)COc1nc(F)c(Cl)c(N)c1Cl (centres unmarked) [Fluroxypyr, Fluroxypyr Meptyl] What is its recorded Assay (% w/w)? 11.71

// query Assay (% w/w) value for entry COc1nn(C(=O)[N-]S(=O)(=O)c2ccccc2OC(F)(F)F)c(=O)n1C.[Na+] [Flucarbazone, Flucarbazone Sodium] 1.99

I would be grateful if you could share the reported Assay (% w/w) for CCCCCC(C)OC(=O)COc1ccc(Cl)c2cccnc12 (centres unmarked) [cloquintocet, Cloquintocet Mexyl] . 0.42

----------
This listing pairs compounds with measured Recovery of active ingredient (% of initial assay).
EXPERIMENTAL_PROTOCOL: Active ingredient assay on storage, SCB239-12 (Table 3)
Type: physicochemical
CONDITION_SET: 1 month storage, T/C
Give just the numeric value; % w/w need not be written.

Answered examples (3):
1) CCCCCC(C)OC(=O)COc1ccc(Cl)c2cccnc12 (centres unmarked): 99.83
2) CCCCC(CC)COC(=O)COc1ccc(Cl)cc1C (centres unmarked): 99.85
3) COc1nn(C(=O)[N-]S(=O)(=O)c2ccccc2OC(F)(F)F)c(=O)n1C.[Na+] [Flucarbazone, Flucarbazone Sodium]: 101.13

Entry CCCCCCCC(=O)Oc1c(Br)cc(C#N)cc1Br [Bromoxynil, Bromoxynil Octanoate] : reported Recovery of active ingredient (% of initial assay) = ? 98.95

Recovery of active ingredient (% of initial assay) lookup needed for CCCCCCC(C)OC(=O)COc1nc(F)c(Cl)c(N)c1Cl (centres unmarked) , thanks. 99.36

----------
EXPERIMENTAL_PROTOCOL: Active ingredient assay on storage, SCB239-12 (Table 3)
Assay type: physicochemical
CONDITION_SET: 2 month storage, T/C
Recovery of active ingredient (% of initial assay) overview
The reply should contain only the number, in % w/w.

Field: example entries. Status: answers known.
1. COc1nn(C(=O)[N-]S(=O)(=O)c2ccccc2OC(F)(F)F)c(=O)n1C.[Na+] [Flucarbazone, Flucarbazone Sodium]: 100.35
2. CCCCCCC(C)OC(=O)COc1nc(F)c(Cl)c(N)c1Cl (centres unmarked): 98.68
3. CCCCCCCC(=O)Oc1c(Br)cc(C#N)cc1Br [Bromoxynil, Bromoxynil Octanoate]: 95.73
4. CCCCCC(C)OC(=O)COc1ccc(Cl)c2cccnc12 (centres unmarked): 101.08

# input compound: CCCCC(CC)COC(=O)COc1ccc(Cl)cc1C (centres unmarked) ; wanted: its Recovery of active ingredient (% of initial assay) 100.84

----------
EXPERIMENTAL_PROTOCOL: Active ingredient assay and recovery on storage (Table 2)
Type: physicochemical
CONDITION_SET: 9 month storage, 25° C.
MEASURED_QUANTITY: Assay (% w/w)
Reply with just the number (in % w/w).

1. CCCCCCC(C)OC(=O)COc1nc(F)c(Cl)c(N)c1Cl (centres unmarked): 11.56

What value of measured Assay (% w/w) is listed for CCCCCCCC(=O)Oc1c(Br)cc(C#N)cc1Br [Bromoxynil, Bromoxynil Octanoate] ? 32.11

Item CCCCCC(C)OC(=O)COc1ccc(Cl)c2cccnc12 (centres unmarked) has what recorded Assay (% w/w)? 0.39

Reported Assay (% w/w) for CCCCC(CC)COC(=O)COc1ccc(Cl)cc1C (centres unmarked) : what is it? 34.73

Any idea what Assay (% w/w) was measured for COc1nn(C(=O)[N-]S(=O)(=O)c2ccccc2OC(F)(F)F)c(=O)n1C.[Na+] [Flucarbazone, Flucarbazone Sodium] ? 1.92
